Data provenance: PubChem BioAssay (NCI)

system: M14 melanoma; experiment: NCI tumour cell line growth inhibition, 384-well format; in the data active means GI50 below about 0.43 µM; inactive means the rest
Mark one answer only. Choices: active, inactive

Compound: C[C@@H](Oc1cc(-n2cnc3ccc(CN4CCN(C)CC4)cc32)sc1C(N)=O)c1ccccc1C(F)(F)F
Study system: M14 melanoma
Group: inactive
//
Compound: NS(=O)(=O)OC[C@@H]1C[C@@H](n2ccc3c(NC4CCc5ccccc54)ncnc32)C[C@@H]1O (some centres undefined)
Study system: M14 melanoma
Group: active
//
Compound: Cc1cc(-c2nc(C(=O)Nc3cc4oc(N5CCOCC5)nc4nc3N3CC[C@@H](O)C3)co2)ccn1
Study system: M14 melanoma
Group: inactive

Please indicate how the test categorized CC1CCC(n2c3cnccc3c3cnc(Nc4ccc5c(n4)CCN(C(=O)CO)C5)nc32)CC1 (centres undefined) . inactive

----------
GI50 for assorted compounds
test system: SN12C renal; test: NCI tumour cell line growth inhibition, 384-well format

Below: 3 compounds and their reported GI50.
Compound: Cc1cc(-c2nc(C(=O)Nc3cc4oc(N5CCOCC5)nc4nc3N3CC[C@@H](O)C3)co2)ccn1
Study system: SN12C renal
Reported measurement: 21.5 µM
--
Compound: C[C@@H](Oc1cc(-n2cnc3ccc(CN4CCN(C)CC4)cc32)sc1C(N)=O)c1ccccc1C(F)(F)F
Study system: SN12C renal
Reported measurement: 2.89 µM
--
Compound: CC1CCC(n2c3cnccc3c3cnc(Nc4ccc5c(n4)CCN(C(=O)CO)C5)nc32)CC1 (centres undefined)
Study system: SN12C renal
Reported measurement: 16.3 µM

Now turn to the next compound.
Specify reported GI50 for the compound shown: C=CC(=O)Nc1cc(Nc2ncc(C(=O)OC(C)C)c(-c3cn(C)c4ccccc34)n2)c(OC)cc1N(C)CCN(C)C 1.63 µM

----------
test system: SF-539 CNS; experiment: NCI tumour cell line growth inhibition, 384-well format
Observation type: GI50

Compound: NS(=O)(=O)OC[C@@H]1C[C@@H](n2ccc3c(NC4CCc5ccccc54)ncnc32)C[C@@H]1O (some centres undefined)
GI50: 85.3 nM

Compound: C[C@@H](Oc1cc(-n2cnc3ccc(CN4CCN(C)CC4)cc32)sc1C(N)=O)c1ccccc1C(F)(F)F
GI50: 462 nM

Compound: C=CC(=O)Nc1cc(Nc2ncc(C(=O)OC(C)C)c(-c3cn(C)c4ccccc34)n2)c(OC)cc1N(C)CCN(C)C
GI50: 1790 nM

Now turn to the next compound.
Specify reported GI50 for the compound shown: CC1CCC(n2c3cnccc3c3cnc(Nc4ccc5c(n4)CCN(C(=O)CO)C5)nc32)CC1 (centres undefined) 5870 nM

----------
system: OVCAR-4 ovarian; assay: NCI tumour cell line growth inhibition, 384-well format
GI50 for assorted compounds

Below: 3 compounds and their reported GI50.
Compound: CC1CCC(n2c3cnccc3c3cnc(Nc4ccc5c(n4)CCN(C(=O)CO)C5)nc32)CC1 (centres undefined)
Reported measurement: 15100 nM

Compound: C[C@@H](Oc1cc(-n2cnc3ccc(CN4CCN(C)CC4)cc32)sc1C(N)=O)c1ccccc1C(F)(F)F
Reported measurement: 1810 nM

Compound: NS(=O)(=O)OC[C@@H]1C[C@@H](n2ccc3c(NC4CCc5ccccc54)ncnc32)C[C@@H]1O (some centres undefined)
Reported measurement: 210 nM

Now turn to the next compound.
Specify reported GI50 for the compound shown: C=CC(=O)Nc1cc(Nc2ncc(C(=O)OC(C)C)c(-c3cn(C)c4ccccc34)n2)c(OC)cc1N(C)CCN(C)C 1800 nM
